- Tested on: NCI-H23
- ASSAY OVERVIEW: relative viability (nuclei count vs DMSO), 5 days (fraction); higher = more cells survive
- CONDITION CONTEXT: first compound 0.03162 µM
MEASURED ATTRIBUTE: relative viability
Reply briefly: the number, and no unit.

Worked cases, relative viability given:
{"MOLECULE": "O=c1cc(N2CCOCC2)oc2c(-c3cccc4c3sc3ccccc34)cccc12 + O=C(CCCCCCC(=O)Nc1ccccc1)NO [Vorinostat] (partner 1 µM)", "relative viability": 0.68}
{"MOLECULE": "O=c1cc(N2CCOCC2)oc2c(-c3cccc4c3sc3ccccc34)cccc12 + CC(C)C[C@H](NC(=O)[C@H](Cc1ccccc1)NC(=O)c1cnccn1)B(O)O [Bortezomib] (partner 0.002 µM)", "relative viability": 1.08}
{"MOLECULE": "O=c1cc(N2CCOCC2)oc2c(-c3cccc4c3sc3ccccc34)cccc12 + CC1(C)CCC(c2ccc(Cl)cc2)=C(CN2CCN(c3ccc(C(=O)NS(=O)(=O)c4ccc(N[C@H](CCN5CCOCC5)CSc5ccccc5)c(S(=O)(=O)C(F)(F)F)c4)cc3)CC2)C1 [Navitoclax] (partner 0.5 µM)", "relative viability": 0.846}

Here's the next entry for you.
relative viability measured on CCN(CC)CCCCNc1ncc2cc(-c3cc(OC)cc(OC)c3)c(NC(=O)NC(C)(C)C)nc2n1 + CC(=O)Nc1cccc(-n2c(=O)n(C3CC3)c(=O)c3c(Nc4ccc(I)cc4F)n(C)c(=O)c(C)c32)c1 [Trametinib] (partner 0.02 µM) = 0.341
